Assignment: determine reported inhibition for the given compounds.
- target-or-system: Nuclear receptor ROR-alpha (Homo sapiens)
- experiment-description: suppression of basal RORA-driven reporter transcription – cell-based, luminescence, primary screen (AID 561);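 note: 0% = RORA-transfected cells with DMSO and 100% = mock-transfected cells lacking RORA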
- condition-notes: CHO-K1 Gal4-RORA LBD luciferase reporter, at 10 µM, stronger effect = higher value
Out of some 65,000 compounds screened, about 280 (0.43%) were called active. The full list was thinned out, with actives kept by preference.
Write down the numeric answer in % and omit the unit.

Report inhibition for CCCN(CCC)CCNC(=O)c1cc2c(C)nc3ccccc3c2o1 please.
-1.5

Report inhibition for CCS(=O)(=O)n1nc(-c2ccc(OC)cc2)nc1SC please.
-52.4

Report inhibition for O=C(Nc1cccc(Cl)c1)OCc1ccccn1 please.
-69.9

Report inhibition for O=C(Nc1ccon1)c1cccc(Cl)c1 please.
2.2

Report inhibition for COC(=O)c1ccc(C2NC(=O)NC(C)=C2C(=O)N(C)C)cc1 (stereo not drawn) please.
29.5

Report inhibition for N#Cc1nc(Cc2ccccc2)oc1NCCc1ccccc1 please.
-54.1

Report inhibition for Cc1ccc(C(c2nnnn2C(C)(C)C)N2CCc3ccccc3C2)cc1 (stereo not drawn) please.
-0.2

Report inhibition for CC(=O)Nc1ccc(-c2cn3cccnc3n2)cc1 please.
-27

Report inhibition for Cc1noc(C)c1S(=O)(=O)Nc1ccc(C(=O)O)cc1 please.
-7.4

Report inhibition for Cc1nc2ccc(S(=O)(=O)NCC(=O)NCCN3CCCCC3C)cc2s1 (stereo not drawn) please.
6.1

Report inhibition for CC(=O)Nc1cccc(-c2cnc3ccccc3n2)c1 please.
-72.9

Report inhibition for CCOC(=O)Nc1ccccc1N1C(=O)c2ccccc2C1=O please.
-13

Report inhibition for COCCCNC(=O)C1CC(=O)N(c2ccc(C)cc2)C1 (stereo not drawn) please.
-6.1

Report inhibition for O=C(CNC(=O)c1ccco1)OCC(=O)c1ccccc1 please.
10.7

Report inhibition for Nc1ccc(-c2nnc(-c3ccc(-c4ccccc4)cc3)o2)cc1 please.
-60.7

Report inhibition for COc1ccccc1C1/C(=C(/O)c2ccc(C)cc2)C(=O)C(=O)N1Cc1ccco1 (stereo not drawn) please.
-17.5

Report inhibition for Cc1ccccc1OCC(=O)Nc1ccc(N2CCN(C(=O)C(C)C)CC2)c(Cl)c1 please.
52

Report inhibition for Cn1c(=O)c(C(=O)Nc2ncccn2)c(O)c2ccccc21 please.
-61

Report inhibition for COc1ccc(-c2nn(-c3ccccc3)cc2C(=O)Nc2nc(CC(C)=O)ns2)cc1 please.
-0.5

Report inhibition for O=c1cc(-c2ccccc2)nc(N2CCCCC2)[nH]1 please.
-0.2

Report inhibition for O=C(Cc1c(F)cccc1Cl)N1CCN(C(=O)c2ccco2)CC1 please.
14.5

Report inhibition for COc1ccc(-n2ncc3c(N4CCc5ccccc54)ncnc32)cc1 please.
-50.3

Report inhibition for O=C(Nc1ccc(Cl)cn1)c1cnn2cccnc12 please.
-62

Report inhibition for Cc1oc2nc(SCC(=O)NCc3cccnc3)nc(N)c2c1C please.
72.8

Report inhibition for CC(C)C[C@H](NC(=O)Nc1cccc(C(F)(F)F)c1)C(=O)O please.
11.1

Report inhibition for CCCCOc1ccc(-c2ncc(C(=O)OCC)c(N)n2)cc1 please.
-59.3

Report inhibition for O=C(NCc1ccccn1)c1c(O)c2c([nH]c1=O)CCCC2 please.
9.5

Report inhibition for CC1(C)NC(=O)N(CCOc2cccc(Oc3ccccc3)c2)C1=O please.
-0.4

Report inhibition for COc1ccccc1-n1nnnc1S(=O)(=O)Cc1ccc(Cl)cc1 please.
54.4

Report inhibition for COc1ccccc1-c1cc(C(=O)N2CCCCC2)no1 please.
-56.5

Report inhibition for CC(C)(C)NC(=O)Cn1nnc(-c2ccccc2Cl)n1 please.
-65.9

Report inhibition for CCOC(=O)CSc1nncc2ccc(OC)c(OC)c12 please.
21

Report inhibition for CC(=O)c1ccc(NC(=O)N[C@@H](Cc2ccccc2)C(=O)O)cc1 please.
16.7

Report inhibition for COC(=O)c1ccc(NC(=O)c2ccco2)cc1 please.
-77.4

Report inhibition for O=C(C1CCN(c2nnc(-n3cccc3)s2)CC1)N1CCc2ccccc2C1 please.
8.1

Report inhibition for c1ccc2c(c1)OCC(CNc1ncnc3nc[nH]c13)O2 (stereo not drawn) please.
-20.2

Report inhibition for Cc1ccsc1C(=O)OCC(=O)c1cc(C)n(CC2CCCO2)c1C (stereo not drawn) please.
85.1

Report inhibition for COc1ccc(C)c2sc(=NC(=O)c3ccc(C#N)cc3)n(C)c12 please.
-84.6

Report inhibition for C=C(C)CSc1nc(N)c2c3c(sc2n1)CCC3 please.
-56.2

Report inhibition for CCSc1nc(C)nc2c1oc1ccccc12 please.
-1

Report inhibition for CC1(C)CC(CCC(=O)Nc2ccccc2Cl)C(=O)O1 (stereo not drawn) please.
6.6

Report inhibition for O=C1c2oc3ccccc3c(=O)c2C(c2cccc(O)c2)N1c1ccccn1 (stereo not drawn) please.
-9.5

Report inhibition for N#CC(=C1SC=CS1)c1nc(-c2ccccc2)cs1 please.
-59.7

Report inhibition for COC(=O)C(C)C1Sc2ccccc2NC1=O (stereo not drawn) please.
13.2

Report inhibition for O=C(NCCN1CCOCC1)c1ccc2c(c1)ncn2C1CCCC1 please.
-3.7

Report inhibition for CC(C)Cc1cc(C(=O)NCCc2ccccc2)no1 please.
-23.2

Report inhibition for CN1CCCC(OC(=O)COc2ccc(Br)cc2)C1 (stereo not drawn) please.
-27

Report inhibition for CC1CN(C(=O)CN2C(=O)NC(C)(c3ccccc3)C2=O)CC(C)O1 (stereo not drawn) please.
11.6

Where do these numbers come from? They come from PubChem BioAssay AID561.
